# TARGET OF ASSAY: human anti HIV-1 monoclonal antibody 2F5 IgG (human)
# ASSAY REMARKS: BLI; streptavidin bio-assay (Octet QKe): biotinylated 2F5 IgG loaded on streptavidin biosensors, association and dissociation of purified Ab2/3H6 variants; kinetics buffer; KD averaged over different Ab2/3H6 concentrations
Measured Kd accompanies every entry in the list below.

BINDER: BM07/vL03 (su3H6 with T94hR, F46lL, Q49lS) (antibody, V domains shown) VH: EVQLVQSGAEVKKPGATVKISCKVSGYTFTDYFMHWVQQAPGKGLEWMGYINCYTGATNYSQKFKGRVTITADTSTDTAYMELSSLRSEDTAVYYCARTSIGYGSSPPFPYWGQGTLVTVS VL: ETTLTQSPAFMSATPGDKVNISCITSTDIDDDMNWYQQKPGEAAILIISDGNTLRPGIPPRFSGSGYGTDFTLTINNIESEDAAYYFCLQSDNLPYTFGQGTKLEIK
Kd (nM): 29
//
BINDER: mouse antibody Ab2/3H6 (wt3H6) (antibody, V domains shown) VH: GVQLQQSGPELVKTGASVKISCKASGYSFTDYFMHWVKQSHGKSLDWIGYINCYTGATNYSQKFKGKATFTVDTSSNTAYMQFNSLTSEDSAVYYCARTSIGYGSSPPFPYWGQGTLVTVS VL: ETTVTQSPASLSMSIGEKVTIRCITSTDIDDDMNWYQQKPGEPPRLLISDGNTLRPGVPSRFSSSGYGTDFVFTIENMLSEDVADYYCLQSDNLPYTFGGGTNLEIK
Kd (nM): 35
//
BINDER: BM07/vL02 (su3H6 with T94hR, Q49lS) (antibody, V domains shown) VH: EVQLVQSGAEVKKPGATVKISCKVSGYTFTDYFMHWVQQAPGKGLEWMGYINCYTGATNYSQKFKGRVTITADTSTDTAYMELSSLRSEDTAVYYCARTSIGYGSSPPFPYWGQGTLVTVS VL: ETTLTQSPAFMSATPGDKVNISCITSTDIDDDMNWYQQKPGEAAIFIISDGNTLRPGIPPRFSGSGYGTDFTLTINNIESEDAAYYFCLQSDNLPYTFGQGTKLEIK
Kd (nM): 59
